The measured values listed here are drawn from ChEMBL document CHEMBL1157094.

Test system: PANC-1
Assay: Cytotoxicity against human PANC1 cells in nutrient-deprived condition assessed as preferential cell death after 24 hrs by WST-8 assay
Each entry below carries its recorded PC50.
Write the number in µM without appending the unit.

The following compounds have reported results that may help.
Enquiry: Look up PC50 for this compound: CCC(C)C(=O)O[C@H]1C(=O)c2c(O)cc(OC)cc2O[C@@H]1c1ccccc1 (stereo partly specified)
Return: 44.8

Enquiry: Quick one: PC50 of "CC(=O)O[C@H]1C(=O)c2c(O)cc(O)cc2O[C@@H]1c1ccccc1" ?
Return: 36.6

Enquiry: Could you tell me which PC50 is on file for O=C1C[C@@H](c2ccccc2)Oc2cc(O)cc(O)c21 [PINOCEMBRIN] ?
Return: 46.5

Enquiry: Which PC50 value is on record for "COc1ccc(/C=C/C(=O)OC/C=C/c2ccccc2)cc1O" ?
Return: 31.7

Enquiry: What value of PC50 has been recorded for this entry: COc1cc(/C=C/C(=O)OCc2ccccc2)ccc1O [BENZYL FERULATE]
Return: 17

Further cases:
Enquiry: Query (compound): "COc1cc(/C=C/C(=O)OCC(COC(=O)/C=C/c2ccc(O)c(OC)c2)OC(C)=O)ccc1O" ; field requested: PC50
Return: 25.8

Enquiry: Field request: PC50 | item: COc1cc(/C=C/C(=O)OCC(COC(=O)/C=C/c2ccc(O)cc2)OC(C)=O)ccc1O (stereo unspecified)
Return: 32.7

Enquiry: Quick check: PC50 of "O=C(/C=C/c1ccc(O)cc1)OC/C=C/c1ccccc1" ?
Return: 38.2

Enquiry: PC50 lookup needed for "COc1ccc(/C=C/C(=O)OCc2ccccc2)cc1OC" , thanks.
Return: 58.8

Enquiry: Which PC50 value belongs to CC(=O)OC(COC(=O)/C=C/c1ccc(O)cc1)COC(=O)/C=C/c1ccc(O)c(O)c1 (stereo unspecified) ?
Return: 17.4

Enquiry: Param item = "COc1cc(O)c2c(c1)O[C@H](c1ccccc1)[C@@H](OC(C)=O)C2=O" ; retrieve measured PC50.
Return: 75.3

Enquiry: Any idea what its PC50 is? The compound is "C=C[C@H](c1ccc(O)c(OC)c1)c1c(O)cc(O)c2c(=O)c(O)c(-c3ccccc3)oc12"
Return: 4.6

Enquiry: Form field: reported PC50 of "O=C(/C=C/c1ccc(O)cc1)OCc1ccccc1"
Return: 23.8

Enquiry: Return reported PC50; argument: O=c1cc(-c2ccc(O)cc2)oc2cc(O)cc(O)c12 [APIGENIN]
Return: 89.5
